settings: human gut metagenome, 24 h, 2 µM; also: call rule not given here
measureName: Bacterial Biotransformation

See these solved cases before continuing.
CC12CC3CC(C)(C1)CC(N)(C3)C2 [MEMANTINE]; Compound NOT metabolized
COc1cc2nc(N3CCN(C(=O)C4CCCO4)CC3)nc(N)c2cc1OC (stereo not drawn); Compound NOT metabolized
COCCCC/C(=N\OCCN)c1ccc(C(F)(F)F)cc1.O=C(O)/C=C\C(=O)O [FLUVOXAMINE MALEATE]; Compound NOT metabolized
CN(CCOc1ccc(CC2SC(=O)NC2=O)cc1)c1ccccn1.O=C(O)/C=C\C(=O)O (stereo not drawn) [ROSIGLITAZONE MALEATE]; Compound NOT metabolized
COC(=O)C(c1ccccc1)C1CCCCN1 (stereo not drawn) [METHYLPHENIDATE]; Compound NOT metabolized
CCCCC(=O)O[C@]1(C(=O)CO)[C@@H](C)C[C@H]2[C@@H]3CCC4=CC(=O)C=C[C@]4(C)[C@@]3(F)[C@@H](O)C[C@@]21C [BETAMETHASONE VALERATE]; Compound NOT metabolized

Bacterial Biotransformation recorded for this compound, CN1[C@@H]2CC[C@H]1C[C@@H](OC(=O)[C@H](CO)c1ccccc1)C2 , is Compound NOT metabolized

---

test: The drug is tested on WLS-052 corresponding to human gut metagenome with ENA study accession number: PRJEB37062 and ENA sample accession number: ERS12561747 for biotransformation under anaerobic condition. The drug concentrations were measured over 9 timepoints collected between 0 and 24 hours of incubation by liquid-chromatography-coupled mass spectrometry (LC–MS); conditions: 2 µM
measureName: Bacterial Biotransformation

O=C(O)c1cc(/N=N/c2ccc(S(=O)(=O)Nc3ccccn3)cc2)ccc1O; Compound NOT metabolized
CCOC(=O)C1=C(C)NC(C)=C(C(=O)OC)C1c1cccc([N+](=O)[O-])c1 (configuration not stated); Compound metabolized
CC(C)c1c(CN(C)C(C)Cc2ccccc2)n(C)n(-c2ccccc2)c1=O (configuration not stated); Compound metabolized
CN(C)CCOC(C)(c1ccccc1)c1ccccn1.O=C(O)CCC(=O)O (configuration not stated) [DOXYLAMINE SUCCINATE]; Compound NOT metabolized
COc1cc(NC(C)CCCN)c2ncccc2c1.O=P(O)(O)O.O=P(O)(O)O (configuration not stated) [PRIMAQUINE PHOSPHATE]; Compound NOT metabolized

State the recorded Bacterial Biotransformation for every item in the following list.
1. COc1ccnc(C[S+]([O-])c2nc3ccc(OC(F)F)cc3[nH]2)c1OC (configuration not stated)
2. CCCCC(=O)O[C@]1(C(=O)CO)[C@@H](C)C[C@H]2[C@@H]3CCC4=CC(=O)C=C[C@]4(C)[C@@]3(F)[C@@H](O)C[C@@]21C [BETAMETHASONE VALERATE]
3. Cc1cc2c(s1)Nc1ccccc1N=C2N1CCN(C)CC1
4. COc1ccc(Cc2nccc3cc(OC)c(OC)cc23)cc1OC
5. COC1=C(OC)C(=O)C(CCCCCCCCCCO)=C(C)C1=O
6. Cc1ccccc1C(OCCN(C)C)c1ccccc1.O=C(O)CC(O)(CC(=O)O)C(=O)O (configuration not stated) [ORPHENADRINE CITRATE]
7. CN(C)CCc1c[nH]c2ccc(CS(=O)(=O)N3CCCC3)cc12

Result:
["Compound metabolized", "Compound metabolized", "Compound NOT metabolized", "Compound metabolized", "Compound metabolized", "Compound NOT metabolized", "Compound NOT metabolized"]

State the recorded Bacterial Biotransformation for every item in the following list.
1. CN(C)CCC=C1c2ccccc2COc2ccccc21 [DOXEPIN]
2. CN[C@H]1CC[C@@H](c2ccc(Cl)c(Cl)c2)c2ccccc21
3. COc1cc2nc(N3CCN(C(=O)C4COc5ccccc5O4)CC3)nc(N)c2cc1OC.CS(=O)(=O)O (configuration not stated) [DOXAZOSIN MESYLATE]
4. CN(C)C(=O)Oc1cc(OC(=O)N(C)C)cc(C(O)CNC(C)(C)C)c1 (configuration not stated)

Result:
1. Compound NOT metabolized
2. Compound metabolized
3. Compound NOT metabolized
4. Compound NOT metabolized

Bacterial Biotransformation recorded for this molecule, CCN(CC)CCOC(=O)C1(C2CCCCC2)CCCCC1 , is Compound NOT metabolized
